Parameter pIC50: see the listing below.
assay.target: BIR3 domain of human cIAP1 (amino acids 256 to 363; cIAP1 BIR3) (Homo sapiens (Human))
assay.explanation: cIAP1 BIR3 binding assay (DELFIA)
assay.conditions: BIR3 domain 10 nM, SMAC peptide 10 nM; values represent the (S)-isomers; * = racemic compound; read-out: cIAP1 BIR-3 IC50
pIC50: −log10 of the molar value.
measured.metric: pIC50

• Cc1ccc(C(=O)Nc2cccc(NC(=O)C(C)N)n2)nc1 (stereo not shown) = 6.38
• CNC(C)C(=O)Nc1cc(-c2nc(C)nc3c(C)nn(C)c23)cc(NC(=O)c2ncc(Cl)cc2F)n1 (stereo not shown) = 9.00
• CNC(C)C(=O)Nc1cc(-c2c(C)ccc3ncccc23)cc(NC(=O)c2ncc3ccccc3n2)n1 (stereo not shown) = 7.28
• CNC(C)C(=O)Nc1cc(-c2c(C)ccc3ncccc23)cc(NC(=O)c2ccc(F)cn2)n1 (stereo not shown) = 7.28

###

assay.target: BIR3 domain of human cIAP1 (amino acids 256 to 363; cIAP1 BIR3) (Homo sapiens (Human))
assay.explanation: cIAP1 BIR3 binding assay (DELFIA)
assay.conditions: BIR3 domain 10 nM, SMAC peptide 10 nM; values represent the (S)-isomers; * = racemic compound; read-out: cIAP1 BIR-3 IC50
A collection of molecules and their measured IC50
measured.metric: IC50 (nM)

• CNC(C)C(=O)Nc1cc(-c2cccc3nc(C)c(C)n23)cc(NC(=O)c2ccc(Cl)cn2)n1 (stereo not shown) = 1
• CNC(C)C(=O)Nc1cc(-c2nc(C)nc3c(C)c(C)n(C)c23)cc(NC(=O)c2ccc(Cl)cn2)n1 (stereo not shown) = 1
• CNC(C)C(=O)Nc1cc(-c2c(C)nc(C)c3c(=O)n(C)n(C)c23)cc(NC(=O)c2ccc(Cl)cn2)n1 (stereo not shown) = 1
• CNC(C)C(=O)Nc1cc(-c2nn(C)c3ncnc(N)c23)cc(NC(=O)c2ccccn2)n1 (stereo not shown) = 95
• CNC(C)C(=O)Nc1cc(-c2cccc3nn(C)c(C)c23)cc(NC(=O)c2ccc(Cl)cn2)n1 (stereo not shown) = 3
• CNC(C)C(=O)Nc1cc(-c2cccc3nc(C)c(C)n23)cc(NC(=O)c2ccc(OC)cn2)n1 (stereo not shown) = 1
• CNC(C)C(=O)Nc1cc(-c2c(C)ccc3ncccc23)cc(NC(=O)c2ccc3ccccc3n2)n1 (stereo not shown) = 170

###

assay.target: BIR3 domain of human cIAP1 (amino acids 256 to 363; cIAP1 BIR3) (Homo sapiens (Human), UniProt Q13490)
Sequence (Q13490 256-363): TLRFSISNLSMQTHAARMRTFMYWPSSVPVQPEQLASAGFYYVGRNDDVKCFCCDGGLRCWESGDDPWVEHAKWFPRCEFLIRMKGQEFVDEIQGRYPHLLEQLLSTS
assay.explanation: cIAP1 BIR3 binding assay (DELFIA)
pIC50: −log10 of the molar value.
measured.metric: pIC50

- CNC(C)C(=O)Nc1cc(-c2ncnc3cccc(C)c23)cc(NC(=O)c2ccc(Cl)cn2)n1 (stereo not drawn) [Example 9]: 9.00
- CNC(C)C(=O)Nc1cc(-c2nc(C)nc3c(C)nn(C)c23)cc(NC(=O)c2ncc(Cl)cc2C)n1 (stereo not drawn) [Example 60]: 7.47
- CNC(C)C(=O)Nc1cc(-c2c(OC)ccc3cc(C#N)ccc23)cc(NC(=O)c2ccc(Cl)cn2)n1 (stereo not drawn) [Example 25]: 7.33

###

assay.target: BIR3 domain of human cIAP1 (amino acids 256 to 363; cIAP1 BIR3) (Homo sapiens (Human), UniProt Q13490)
assay.explanation: cIAP1 BIR3 binding assay (DELFIA)
assay.conditions: BIR3 domain 10 nM, SMAC peptide 10 nM; values represent the (S)-isomers; * = racemic compound; read-out: cIAP1 BIR-3 IC50
pIC50: −log10 of the molar value.
measured.metric: pIC50

* CNC(C)C(=O)Nc1cc(-c2ncnc3c(C)nn(C)c23)cc(NC(=O)c2cc3c(cn2)COC3)n1 (stereo not shown) | 8.70
* CNC(C)C(=O)Nc1cc(-c2c(C)ccc3ncccc23)cc(NC(=O)c2cccc(C)n2)n1 (stereo not shown) | 6.22
* CNC(C)C(=O)Nc1cc(-c2c(OC)ccc3ccccc23)cc(NC(=O)c2ccc(Cl)cn2)n1 (stereo not shown) | 6.65
* CNC(C)C(=O)Nc1cc(-c2c(OC)ccc3nccnc23)cc(NC(=O)c2ccc(Cl)cn2)n1 (stereo not shown) | 7.30
* CNC(C)C(=O)Nc1cc(-c2c(C)ccc3ncccc23)cc(NC(=O)c2cccnn2)n1 (stereo not shown) | 5.58
* CNC(C)C(=O)Nc1cc(-c2ncnc3cccc(Cl)c23)cc(NC(=O)c2ccc(Cl)cn2)n1 (stereo not shown) | 9.00
* CNC(C)C(=O)Nc1cc(-c2ccncc2C#N)cc(NC(=O)c2ccc(Cl)cn2)n1 (stereo not shown) | 7.55
* CNC(C)C(=O)Nc1cc(-c2cccc3cncc(C)c23)cc(NC(=O)c2ccc(Cl)cn2)n1 (stereo not shown) | 9.00
* CNC(C)C(=O)Nc1cc(-c2c(C)ccc3ncccc23)cc(NC(=O)c2cc3c(cn2)COC3)n1 (stereo not shown) | 7.51
* CNC(C)C(=O)Nc1cc(-c2ncnc3nc(C)n(C)c23)cc(NC(=O)c2ccc(Cl)cn2)n1 (stereo not shown) | 9.00
* CNC(C)C(=O)Nc1cc(-c2ccnc3cc(F)cc(F)c23)cc(NC(=O)c2ccc(Cl)cn2)n1 (stereo not shown) | 8.10
* CNC(C)C(=O)Nc1cc(-c2ncnc3oc(C)c(C)c23)cc(NC(=O)c2ccc(Cl)cn2)n1 (stereo not shown) | 9.00
* CNC(C)C(=O)Nc1cc(-c2c(C)ccc3ncccc23)cc(NC(=O)c2cnc(C)cn2)n1 (stereo not shown) | 6.98
* CNC(C)C(=O)Nc1cc(-c2nc(C)nc3c(C)nn(C)c23)cc(NC(=O)c2ccc(Cl)cn2)n1 (stereo not shown) | 9.00
* CNC(C)C(=O)Nc1cc(-c2c(C)ccc3ncccc23)cc(NC(=O)c2ccn(C)n2)n1 (stereo not shown) | 6.15
* CNC(C)C(=O)Nc1cc(-c2c(C)ncnc2C)cc(NC(=O)c2ccc(Cl)cn2)n1 (stereo not shown) | 8.30
* CNC(C)C(=O)Nc1cc(-c2nccc3c(=O)n(C)n(C)c23)cc(NC(=O)c2ccc(Cl)cn2)n1 (racemic) | 8.52
* CNC(C)C(=O)Nc1cc(-c2c(C)ccc3ncccc23)cc(NC(=O)c2ccc(C)cn2)n1 (stereo not shown) | 7.55
* CNC(C)C(=O)Nc1cc(-c2cccc3cnn(C)c23)cc(NC(=O)c2ccc(Cl)cn2)n1 (stereo not shown) | 8.52
* CNC(C)C(=O)Nc1cc(-c2c(C)noc2C)cc(NC(=O)c2ccc(Cl)cn2)n1 (stereo not shown) | 8.52
* CNC(C)C(=O)Nc1cc(-c2ncnc3cccc(F)c23)cc(NC(=O)c2ccc(Cl)cn2)n1 (stereo not shown) | 9.00
* CNC(C)C(=O)Nc1cc(-c2c(Cl)cnc3ccccc23)cc(NC(=O)c2ccc(Cl)cn2)n1 (stereo not shown) | 7.96
* CNC(C)C(=O)Nc1cc(-c2cccc3nc(C)c(C)n23)cc(NC(=O)c2cc3c(cn2)COC3)n1 (stereo not shown) | 9.00
* CNC(C)C(=O)Nc1cc(-c2c(C)ccc3ncccc23)cc(NC(=O)c2cc3ccccc3cn2)n1 (stereo not shown) | 6.88
* CNC(C)C(=O)Nc1cc(-c2c(C)ccc3ncccc23)cc(NC(=O)c2ccc(OC)cn2)n1 (stereo not shown) | 7.23
* CNC(C)C(=O)Nc1cc(-c2cccc3nc(C)c(C)n23)cc(NC(=O)c2cc3ccccc3[nH]2)n1 (stereo not shown) | 6.46
* CNC(C)C(=O)Nc1cc(-c2c(C)ccc3ncccc23)cc(NC(=O)c2ccccn2)n1 (stereo not shown) | 6.26
* CNC(C)C(=O)Nc1cc(-c2nc(OC)nc3c(C)nn(C)c23)cc(NC(=O)c2ccc(Cl)cn2)n1 (stereo not shown) | 7.26
* CNC(C)C(=O)Nc1cc(-c2c(C)ccc3ncccc23)cc(NC(=O)c2cc(Cl)ccn2)n1 (stereo not shown) | 5.93
* CNC(C)C(=O)Nc1cc(-c2ncnc3c(C)nn(C)c23)cc(NC(=O)c2ccc(Cl)cn2)n1 (stereo not shown) | 9.00
* CNC(C)C(=O)Nc1cc(-c2cccc3nc(C)c(C)n23)cc(NC(=O)Cc2ccccc2)n1 (stereo not shown) | 5.27
